# System: P12-Ichikawa
# Assay notes: cell viability relative to DMSO control; higher = less cytotoxic
# Test parameters: RPMI 5 mM glucose + 10% FBS; 48 h; 15.4 µM
Property label: cell viability (%)

{"columns": ["Compound", "Tested on", "Obs value"],
 "data": [
  ["O=C/1\\C=C(/OC(=C1)/C2=C3SC4=C(SC3=CC=C2)C=CC=C4)N5CCOCC5", "P12-Ichikawa", 102],
  ["Cc1c[nH]c(/C=C2\\C(=O)Nc3ccccc32)c1CCC(=O)O", "P12-Ichikawa", 65.8],
  ["O=C1\\C=C(/OC2=C1C=CC=C2C3=CC=CC=C3)N4CCOCC4", "P12-Ichikawa", 74.1],
  ["CCCCN(CCCC)CCC(O)c1cc2c(Cl)cc(Cl)cc2c2cc(C(F)(F)F)ccc12 (stereo not drawn)", "P12-Ichikawa", 105],
  ["O=C(O)[C@H](Cc1c[nH]c2ccccc12)N1C(=O)c2ccccc2C1=O", "P12-Ichikawa", 101],
  ["Nc1nc(-c2nn(Cc3ccccc3F)c3ncccc23)nc(N)c1N1CCOCC1", "P12-Ichikawa", 111],
  ["C[C@]\\1(CCS\\C(=N1)N)C2=CC(=C(F)C=C2F)C3=CN=CN=C3", "P12-Ichikawa", 30.2],
  ["C#Cc1cccc(Nc2ncnc3cc(OCCOC)c(OCCO)cc23)c1", "P12-Ichikawa", 95.7],
  ["Cc1cc(Nc2ncc(Cl)c(Nc3ccccc3[S+](=O)([O-])C(C)C)n2)c(OC(C)C)cc1C1CCNCC1", "P12-Ichikawa", 69.9],
  ["CSC1=CC(=CC=C1)NC2=NC3=C(C=N2)/C=C(C(=O)N3C)/C4=C(Cl)C=CC=C4Cl", "P12-Ichikawa", 95.5],
  ["CN1CCCN(C(=O)c2cccc(-c3ccc(/C=C4/C(=O)Nc5ccc(Cl)cc54)o3)c2)CC1", "P12-Ichikawa", 20.1],
  ["O=[N+]([O-])c1cn2c(n1)OC[C@@H](OCc1ccc(OC(F)(F)F)cc1)C2", "P12-Ichikawa", 111],
  ["OC[C@H]1O[C@@H](Oc2ccc(O)cc2)[C@H](O)[C@@H](O)[C@@H]1O", "P12-Ichikawa", 93.1],
  ["Cc1nc(Nc2ncc(C(=O)Nc3c(C)cccc3Cl)s2)cc(N2CCN(CCO)CC2)n1", "P12-Ichikawa", 21.3],
  ["Fc1cc(-c2cccc3ncc(-c4cnn(C5CCNCC5)c4)nc23)cc(F)c1CN1CCOCC1", "P12-Ichikawa", 70.7],
  ["COc1cc2nccc(Oc3ccc(NC(=O)Nc4cc(C)on4)c(Cl)c3)c2cc1OC", "P12-Ichikawa", 106],
  ["ClC1=CC=C(CCCOC/2=N/NC(=O)C(=C2NCC3=CN=CC=C3)/Br)C=C1", "P12-Ichikawa", 69.6],
  ["C[C@@H](c1ncncc1F)[C@](O)(Cn1cncn1)c1ccc(F)cc1F", "P12-Ichikawa", 105]
]}

Reference source: the supplement of paper PMC11451515
